Source of measurements: the supplement of paper PMC9170038

Tested on: MS2 coat protein
Test: apparent KD of MS2 coat protein; higher = weaker reporter binding
Settings: Eterna round: R107; input ligand: tryptophan 2.4 mM
readout_name: apparent KD of MS2 coat protein (nM)
Numbers only, in nM.

{"residue_sequence": "AGUACUCGAACGGAUACCAGCCGGACAUGAGGAUCACCCAUGUCCUACCUAUGUUCGGUUGGCCCUUGGCAGCCGUUCGUGUACA [Omei Theo B SS A v6]", "apparent KD of MS2 coat protein [nM]": 430}

# map each sequence to its apparent KD of MS2 coat protein
1. AGAUUCGACACGGCCGCCACUCGUGGAGGAUUACCGAGUGUCGAACAUGAGGAUCACCCAUGUACGAGGACCGGGUGUUGAGUCU [XTryp B #15]
2. AAUCGUAAGGCGGCCGCCACUACACAUGAGGAUCACCCAUGUCUCGCGGGCUUGCGUUGGGAUUGUAGGACCGGGCCAGUAAUAA [Exclusion - Tryptophan B (Freestyle 12)]

[179, 21.3]
